Data origin, for the record: patent US5298495A

# ASSAY: Acute toxicity in mice (DL50)
# Assay type: in vivo
# CONDITIONS USED: mouse, in vivo, ip, read-out: DL50 mice i.p.

MOLECULE	UNITS LABEL	VALUE RELATION SIGN	LD50
CNc1ccc(C(=O)CC(O)CCC(C)C2OC(=O)CC(O)CC(=O)CC(O)CC(O)CC(O)CC(O)CC3(O)CC(O)C(C(=O)NCCc4ccccn4)C(CC(OC4OC(C)C(O)C(NC(=O)CCN5CCCCC5)C4O)C=CC=CC=CC=CC=CC=CC=CC2C)O3)cc1 (stereo not shown) [Partr. A, drawing 51, drawing 52]	mg/kg	>	300
CNc1ccc(C(=O)CC(O)CCC(C)C2OC(=O)CC(O)CC(=O)CC(O)CC(O)CC(O)CC(O)CC3(O)CC(O)C(C(=O)NCCN(C)C)C(CC(OC4OC(C)C(O)C(NC(=O)CCN5CCCCC5)C4O)C=CC=CC=CC=CC=CC=CC=CC2C)O3)cc1 (stereo not shown) [Partr. A, drawing 33, NHCH2 CH2N(CH3)2]	mg/kg	=	43.6
CNc1ccc(C(=O)CC(O)CCC(C)C2OC(=O)CC(O)CC(=O)CC(O)CC(O)CC(O)CC(O)CC3(O)CC(O)C(C(=O)NCCN(C)C)C(CC(OC4OC(C)C(O)C(NC(=O)CN5CCN(CCO)CC5)C4O)C=CC=CC=CC=CC=CC=CC=CC2C)O3)cc1 (stereo not shown) [Partr. A, drawing 45, NHCH2 CH2N(CH3)2]	mg/kg	>	100
CNc1ccc(C(=O)CC(O)CCC(C)C2OC(=O)CC(O)CC(=O)CC(O)CC(O)CC(O)CC(O)CC3(O)CC(O)C(C(=O)NCCN(C)C)C(CC(OC4OC(C)C(O)C(NC(=O)CN(C)C)C4O)C=CC=CC=CC=CC=CC=CC=CC2C)O3)cc1 (stereo not shown)	mg/kg	=	158

---

# Tested on: rat erytrocytes
# ASSAY: Hemolytic activity on rat erythrocytes
# Assay type: cell-based
MEASUREMENT TYPE: Hemolytic con. total (THC) (µg/mL)

COMPOUND	VALUE RELATION SIGN	REPORTED MEASUREMENT
CNc1ccc(C(=O)CC(O)CCC(C)C2OC(=O)CC(O)CC(=O)CC(O)CC(O)CC(O)CC(O)CC3(O)CC(O)C(C(=O)N4CCN(C)CC4)C(CC(OC4OC(C)C(O)C(NC(=O)CN5CCN(CCO)CC5)C4O)C=CC=CC=CC=CC=CC=CC=CC2C)O3)cc1 (stereo not shown) [Partr. A, drawing 48, drawing 49]	=	0.7
CNc1ccc(C(=O)CC(O)CCC(C)C2OC(=O)CC(O)CC(=O)CC(O)CC(O)CC(O)CC(O)CC3(O)CC(O)C(C(=O)N4CCN(CCO)CC4)C(CC(OC4OC(C)C(O)C(NC(=O)CN5CCN(C)CC5)C4O)C=CC=CC=CC=CC=CC=CC=CC2C)O3)cc1 (stereo not shown) [Partr. A, drawing 40, drawing 41]	=	2
CNc1ccc(C(=O)CC(O)CCC(C)C2OC(=O)CC(O)CC(=O)CC(O)CC(O)CC(O)CC(O)CC3(O)CC(O)C(C(=O)N4CCN(CCO)CC4)C(CC(OC4OC(C)C(O)C(NC(=O)CN(C)C)C4O)C=CC=CC=CC=CC=CC=CC=CC2C)O3)cc1 (stereo not shown) [Partr. A, COCH2N(CH3)2, drawing 30]	=	0.7
CNc1ccc(C(=O)CC(O)CCC(C)C2OC(=O)CC(O)CC(=O)CC(O)CC(O)CC(O)CC(O)CC3(O)CC(O)C(C(=O)NCCN(C)C)C(CC(OC4OC(C)C(O)C(NC(=O)CN(C)C)C4O)C=CC=CC=CC=CC=CC=CC=CC2C)O3)cc1 (stereo not shown)	>	18
